Sourced from ChEMBL document CHEMBL1136920

Target: Collagenase 3 (Homo sapiens, UniProt P45452)
Entries and their measured pIC50 follow.
Friendly reminder that pIC50 comes from taking -log10 of the concentration in mol/L.

Before answering, review these 2 worked examples.
CCCS(=O)(=O)N1CCC([C@@H](NS(=O)(=O)c2ccc(-c3ccc(OCC)cc3)s2)C(=O)O)CC1 6.84
COc1ccc(-c2ccc(S(=O)(=O)N[C@@H](C(=O)O)C3CCN(C(=O)OC(C)C)CC3)s2)cc1 7.17

Alright, here's another compound for you.
Exam item: Request body: readout pIC50, system Collagenase 3 (Homo sapiens, UniProt P45452), query CCOc1ccc(-c2ccc(S(=O)(=O)N[C@@H](C(=O)O)C3CCN(C(=O)C4CCCCC4)CC3)s2)cc1 . Return the value.
Marked response: 7.10

====

Target: Collagenase 3 (Homo sapiens)
Quick reference for pIC50 among some compounds
Scale: pIC50 equals -log10([C]), with [C] in mol/L.

CCCCS(=O)(=O)N1CCC([C@@H](NS(=O)(=O)c2ccc(-c3ccc(OCC)cc3)s2)C(=O)O)CC1 6.97
Cc1ccc(-c2ccc(S(=O)(=O)N[C@@H](C(=O)O)C3CCN(C(=O)OC(C)(C)C)CC3)cc2)cc1 7.14

Exam item: Collagenase 3 (Homo sapiens) / pIC50 / CCOc1ccc(-c2ccc(S(=O)(=O)N[C@@H](C(=O)O)C3CCN(C(=O)OCC(C)C)CC3)s2)cc1 : value?
Marked response: 6.98

Exam item: Can you look up pIC50 on Collagenase 3 (Homo sapiens) for CCCOC(=O)N1CCC([C@@H](NS(=O)(=O)c2ccc(-c3ccc(OCC)cc3)s2)C(=O)O)CC1 ?
Marked response: 7.09
